- experimental-system: human TLR8 (Homo sapiens)
- Sequence (Q9NR97 27-1041): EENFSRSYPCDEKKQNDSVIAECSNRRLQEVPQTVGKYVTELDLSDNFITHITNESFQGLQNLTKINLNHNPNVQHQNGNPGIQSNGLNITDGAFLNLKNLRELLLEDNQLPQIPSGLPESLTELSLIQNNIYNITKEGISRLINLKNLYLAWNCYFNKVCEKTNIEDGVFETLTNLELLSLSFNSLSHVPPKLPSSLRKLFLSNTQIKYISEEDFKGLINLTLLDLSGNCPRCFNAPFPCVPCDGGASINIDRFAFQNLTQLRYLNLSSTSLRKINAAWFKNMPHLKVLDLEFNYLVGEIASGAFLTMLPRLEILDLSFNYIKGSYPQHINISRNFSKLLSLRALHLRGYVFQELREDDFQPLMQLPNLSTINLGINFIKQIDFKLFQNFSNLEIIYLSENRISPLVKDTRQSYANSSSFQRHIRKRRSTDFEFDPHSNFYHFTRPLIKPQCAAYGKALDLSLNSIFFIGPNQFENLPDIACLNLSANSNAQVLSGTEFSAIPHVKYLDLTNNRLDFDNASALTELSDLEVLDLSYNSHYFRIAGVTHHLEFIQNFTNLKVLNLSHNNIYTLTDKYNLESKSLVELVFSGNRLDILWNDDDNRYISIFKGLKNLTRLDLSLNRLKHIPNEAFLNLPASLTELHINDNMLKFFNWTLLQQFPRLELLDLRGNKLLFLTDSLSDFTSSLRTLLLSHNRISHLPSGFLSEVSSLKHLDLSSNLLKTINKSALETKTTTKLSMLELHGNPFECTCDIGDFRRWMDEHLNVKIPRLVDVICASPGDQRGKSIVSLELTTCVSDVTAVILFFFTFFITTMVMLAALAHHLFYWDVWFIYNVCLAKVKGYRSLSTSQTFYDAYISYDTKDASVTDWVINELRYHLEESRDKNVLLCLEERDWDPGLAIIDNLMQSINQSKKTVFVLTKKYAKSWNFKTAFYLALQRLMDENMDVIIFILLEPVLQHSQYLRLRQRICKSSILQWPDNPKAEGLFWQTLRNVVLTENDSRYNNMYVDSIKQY
- assay-name: HEK293-Blue-hTLR-8 cells assay (SEAP reporter, R848 stimulation)
- condition-notes: HEK293-Blue-hTLR8 cells, R848, 20 hrs incubation; read-out: HEK/hTLR8 IC50
assay-metric: IC50 (nM)

These solved cases illustrate the format of a correct answer.
{"compound": "C[C@@H]1CN(c2ccc(C#N)c3ncccc23)C[C@@H]2Cc3cc(N4CCN(C(=O)[C@]5(C)CCCN5)CC4)ccc3CN21", "experimental-system": "human TLR8 (Homo sapiens)", "measured-result": 1.4}
{"compound": "C[C@@H]1CN(c2ccc(C#N)c3ncccc23)C[C@@H]2Cc3ccc(N4CCOCC(N)C4)cc3CN21 (stereo partly shown)", "experimental-system": "human TLR8 (Homo sapiens)", "measured-result": 14.5}

(I) C[C@@H]1CN(c2ccc(C#N)c3ncccc23)C[C@@H]2Cc3cc(N4CCN(C(=O)C(C)(C)N)CC4)ccc3CN21
(II) C[C@@H]1CN(c2ccc(C#N)c3ncccc23)C[C@@H]2Cc3cc(N4C[C@H]5CNCCN5C4=O)ccc3CN21 (single isomer, unassigned) [Example 17B]
Response body: label of entry with the larger IC50; valid values I , II . Mark your selection by writing its label.
I
(I: 37.5 nM, II: 2.4 nM)

Data provenance: patent US20230002375A1
